Tested on: HIF-2α transcriptional activity
Assay: Hypoxia-responsive element-driven luciferase (HRE-Luc) screen
Assay type: cell-based, human
Conditions: Homo sapiens, 786-0, 24 h, 786-0 ccRCC cells stably expressing HRE-Luc; 24 h treatment; range of IC50 values
pIC50: −log10 of the molar value.
quantityKind: pIC50

Sample answers from the record:
compound	target	pIC50
COc1cccc2nc(Nc3nnc(N4CCOCC4)o3)[nH]c12	HIF-2α transcriptional activity	4.30 to 5.00
COc1cccc2nc(Nc3nnc(C4C[C@H]5CC[C@@H]4C5)o3)[nH]c12 (some centres unmarked)	HIF-2α transcriptional activity	4.30 to 5.00
Fc1ccc(-c2nnc(Nc3nc4ccnc(N5CCOCC5)c4[nH]3)o2)cc1	HIF-2α transcriptional activity	4.30 to 5.00
COc1ccc(-c2csc(Nc3nc4c(OC)nc(C)cc4[nH]3)n2)cc1C#N	HIF-2α transcriptional activity	< 4.00
COc1nccc2[nH]c(Nc3nnc(-c4ccc(OC5CC5)cc4)o3)nc12	HIF-2α transcriptional activity	> 5.00

get_value(item= `COc1cccc2[nH]c(Nc3nnc(N4C[C@H](C)C[C@H](C)C4)o3)nc12` , readout=pIC50) returns < 4.00

get_value(item= `COc1cccc2[nH]c(Nc3nnc(-c4ccc5occc5c4)o3)nc12` , readout=pIC50) returns < 4.00

get_value(item= `COc1ccc2nc(Nc3nnc(-c4ccc(F)cc4)o3)sc2n1` , readout=pIC50) returns 4.00 to 4.30

get_value(item= `COc1ccc(-c2nnc(Nc3nc4c(OC)nccc4[nH]3)o2)cn1` , readout=pIC50) returns > 5.00

get_value(item= `COc1nccc2[nH]c(Nc3nnc(-c4ccc(OC(C)C)cc4)o3)nc12` , readout=pIC50) returns 4.30 to 5.00
